- Target or test system: Mcl-1 protein (UniProtKB Q07820) (Homo sapiens (Human), UniProt Q07820)
- Sequence (Q07820 whole entry): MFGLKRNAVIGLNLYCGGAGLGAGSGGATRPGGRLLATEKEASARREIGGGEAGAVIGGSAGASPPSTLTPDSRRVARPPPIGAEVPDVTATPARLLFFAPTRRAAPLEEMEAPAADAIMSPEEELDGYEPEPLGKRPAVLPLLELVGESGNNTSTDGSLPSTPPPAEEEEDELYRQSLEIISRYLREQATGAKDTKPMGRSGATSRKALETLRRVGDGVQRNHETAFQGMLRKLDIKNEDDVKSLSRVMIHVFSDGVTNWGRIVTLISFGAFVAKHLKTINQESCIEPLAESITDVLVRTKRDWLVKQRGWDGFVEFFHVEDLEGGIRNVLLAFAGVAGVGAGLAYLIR
- Test: Inhibition of Mcl-1 by the fluorescence polarisation assay (Example A, Method A)
- Condition label: fluorescence polarization assay
pKi: −log10 of the molar value.
Quick rule: pKi of at least 7 means met, below that means not met.

Some solved cases for reference:
O=C(O)[C@]1(Nc2cccc(Cl)c2)CC[C@]2(CC1)C(c1cccc3ccoc13)=Cc1ccccc12; not met
CC1(C)CCc2ncnc(OCCCC3Cc4ccccc4[C@]34CC[C@@](Nc3cccc(Cl)c3)(C(=O)O)CC4)c21 (stereo partly shown); met

Does O=C(O)[C@]1(Nc2cccc(Br)c2)CC[C@@]2(CC1)c1ccccc1CC2CCc1ccccn1 (stereo partly shown) have a reported pKi of at least 7?
not met

Item: O=C(O)[C@]1(Nc2cccc(Cl)c2)CC[C@@]2(CC1)c1ccccc1CC2c1cccc(OCC2CC2)c1 (single isomer, unassigned) [Example 355]
not met
